Reference source: patent US20250382359A1

# EXPERIMENTAL_SYSTEM: T1, Cyno GDF15 Fc (cyno, UniProt G7PWZ3 193-308, limits assumed)
# T1 construct: also called cyno GDF15-Fc fusion; not shown: Fc part
# T1 sequence: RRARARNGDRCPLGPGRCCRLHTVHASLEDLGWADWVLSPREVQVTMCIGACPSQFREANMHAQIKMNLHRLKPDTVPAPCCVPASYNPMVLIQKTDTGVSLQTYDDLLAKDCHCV
# PROTOCOL_DESCRIPTION: BLI Octet; antigen on sensor, 100 nM Fab (monovalent)
Could you please report measured Kd for the items listed next?

# count of solved cases: 2
{"BINDER": "GDF15 antibody agent Clone I, Fab (Fab, V domains shown, Fab; CH1 and CL of the Fab not specified; also called Fab of Clone I) VH: QVQLVQSGAEVKKPGASVKVSCKASGYTFTDEGINWVRQAPGQGLEWMGWITAYSGDTVYAQKLQGRVTMTTDTSTSTAYMELRSLRSDDTAVYYCARGPGQYADVDVWGQGTMVTVSS VL: DIQMTQSPSSVSASVGDRVTITCRASQGISSWLAWYQQKPGKAPKLLIYAASSLQSGVPSRFSGSGSGTDFTLTISSLQPEDFATYYCQQANSFPITFGGGTKVEIK", "Kd": "1.38 nM"}
{"BINDER": "GDF15 antibody agent Clone S, Fab (Fab, V domains shown, Fab; CH1 and CL of the Fab not specified; also called Fab of Clone S) VH: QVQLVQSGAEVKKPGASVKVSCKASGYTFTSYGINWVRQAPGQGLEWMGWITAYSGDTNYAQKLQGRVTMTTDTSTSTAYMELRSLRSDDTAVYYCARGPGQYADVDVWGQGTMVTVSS VL: DIQLTQSPSSVSASVGDRVTITCRASQGISPWLAWYQQKPGKAPKLLIYAASSLQSGVPSRFSGSGSGTDFTLTISSLQPEDFATYYCQQANSFPITFGGGTKVEIK", "Kd": "0.252 nM"}

Moving on to the next binder.
Which value of Kd has been reported for GDF15 antibody agent Clone O, Fab (Fab, V domains shown, Fab; CH1 and CL of the Fab not specified; also called Fab of Clone O) VH: QVQLVQSGAEVKKPGATVKVSCKASGYTFDSLGMSWVRQAPGQGLEWMGYISTYSGDTVYAQKLQGRVTMTTDTSTSTAYMELRSLRSDDTAVYYCARESGQQVSALDPWGQGTLVTVSS VL: DIQMTQSPSSVSASVGDRVTITCRASQGISRWLAWYQQKPGKAPKLLIYAASSLQSGVPSRFSGSGSGTDFTLTISSLQPEDFATYYCQQGASFPLTFGGGTKVEIK in the records? 0.077 nM
